# Tested on: Candida albicans
# Method: Antifungal activity against Candida albicans KCCM 50235 after 1 day
# Assay type: functional
# Condition notes: KCCM 50235, 24 h
Observation type: MIC (µg/mL)
Give your result in µg/mL as a bare value.

Quote MIC reported for COC(=O)c1c2c(n(-c3ccc(C)cc3)c1N)C(=O)c1ncccc1C2=O please.
100

Quote MIC reported for Nc1nc(=O)[nH]cc1F please.
6.3

====

# System: Candida albicans
# Method: Antifungal activity against Candida albicans KCCM 50235 after 1 day
# Type: functional
# Condition notes: KCCM 50235, 24 h
Observation type: MIC (µg/mL)
Give your result in µg/mL as a bare value.

Quote MIC reported for CCOC(=O)c1c2c(n(-c3ccc(F)c(F)c3)c1N)C(=O)c1ncccc1C2=O please.
1.6

Quote MIC reported for Cn1c(N)c(C#N)c2c1C(=O)c1ccccc1C2=O please.
12.5

====

# Tested on: Candida albicans
# Method: Antifungal activity against Candida albicans KCCM 50235 after 1 day
# Format: functional
# Condition notes: KCCM 50235, 24 h
Criterion: MIC strictly under 10 µg/mL. Met: true (1). Not met: false (0).

Check out these entries, answers already filled in.
{"columns": ["Chem smiles", "Group"],
 "data": [
  ["CCOC(=O)c1c2c(n(-c3ccc(C(F)(F)F)cc3)c1N)C(=O)c1ncccc1C2=O", "true (1)"],
  ["OC(Cn1cncn1)(Cn1cncn1)c1ccc(F)cc1F", "false (0)"],
  ["CCOC(=O)c1c2c(n(-c3ccccc3)c1N)C(=O)c1ncccc1C2=O", "false (0)"],
  ["COC(=O)c1c2c(n(-c3ccc(OC)cc3)c1N)C(=O)c1ncccc1C2=O", "false (0)"],
  ["CCn1c(N)c(C#N)c2c1C(=O)c1ccccc1C2=O", "false (0)"]
]}

Next item in the queue.
Field: below-cutoff. Rule: recorded MIC strictly less than 10 µg/mL. Subject: CCOC(=O)c1c2c(n(-c3ccc(Br)cc3)c1N)C(=O)c1ncccc1C2=O
false (0)

====

# Test system: Candida albicans
# Method: Antifungal activity against Candida albicans KCCM 50235 after 1 day
# Format: functional
# Condition notes: KCCM 50235, 24 h
Measured MIC accompanies every entry in the list below.

{"columns": ["Chem smiles", "Observation type", "Test value"],
 "data": [
  ["Cc1ccc(-n2c(N)c(C#N)c3c2C(=O)c2ccccc2C3=O)cc1", "MIC", "> 100 µg/mL"],
  ["CCOC(=O)c1c2c(n(-c3ccc(C)cc3)c1N)C(=O)c1ncccc1C2=O", "MIC", "> 100 µg/mL"]
]}

--- query ---
Given CCOC(=O)c1c2c(n(-c3ccc(OC)cc3)c1N)C(=O)c1ncccc1C2=O , report its MIC on Candida albicans.
> 100 µg/mL

====

# System: Candida albicans
# Method: Antifungal activity against Candida albicans KCCM 50235 after 1 day
# Assay type: functional
# Condition notes: KCCM 50235, 24 h
Observation type: MIC

{"columns": ["Chem smiles", "MIC"],
 "data": [
  ["COC(=O)c1c2c(n(-c3ccccc3)c1N)C(=O)c1ncccc1C2=O", "> 100 µg/mL"],
  ["Nc1ccc(O)c2ncccc12", "> 100 µg/mL"]
]}

--- query ---
Quote MIC reported for CCOC(=O)c1c2c(n(-c3ccc(F)cc3)c1N)C(=O)c1ncccc1C2=O please.
> 100 µg/mL
